- study.system: RORγ ligand binding domain (LBD) (Homo sapiens)
- Construct: made in house; host or cells: E. coli BL-21 (BL3), vector pDEST15
- Sequence (P51449 269-508 limits assumed): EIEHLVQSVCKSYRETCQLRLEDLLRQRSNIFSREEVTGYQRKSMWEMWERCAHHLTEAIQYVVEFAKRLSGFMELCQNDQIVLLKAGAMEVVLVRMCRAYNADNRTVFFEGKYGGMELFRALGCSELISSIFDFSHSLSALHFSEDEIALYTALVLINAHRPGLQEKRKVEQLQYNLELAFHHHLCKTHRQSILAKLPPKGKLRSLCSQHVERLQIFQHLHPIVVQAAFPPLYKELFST
- experiment.summary: TR-FRET Activity Assay (ligand sensing, RORγ-LBD / coactivator peptide interaction)
- Type: biochemical
- conditions: read-out: RORγ activity in the TR-FRET Activity Assay (IC50 FRET), Group
- Description: This method measures the ability of putative ligands to modulate the interaction between the purified bacterial expressed RORγ ligand binding domain (LBD) and synthetic N-terminally biotinylated peptides which are derived from nuclear receptor coactivator proteins such as but not limited to SRC1 (NcoA1), SRC2 (NcoA2, TIF2), SRC3 (NcoA3), PGC1α, PGC1β, CBP, GRIP1, TRAP220, RIP140. […] This is identical to the “four parameter logistic equation”. The IC50 values are calculated using this equation.
pIC50: −log10 of the molar value.
// pIC50 lookup, one value per entry

Here is how some molecules turned out for pIC50.
Inquiry: # get_value(readout= pIC50, system= RORγ ligand binding domain (LBD) (Homo sapiens)) for Cc1c(S(N)(=O)=O)cc(-c2ccc(S(=O)(=O)NC(C)(C)C)c(C(C)(C)C)c2)n1CC1CCCCC1
Reply text: 5.70 to 6.30

Inquiry: Item: Cc1c(S(N)(=O)=O)cc(-c2cc(C(C)C)c3c(c2)C(C)(C)NS3(=O)=O)n1CC1CCCCC1
Reply text: < 5.70

Inquiry: Item: Cc1c(S(N)(=O)=O)cc(-c2cc(C3(C)CC3)cc(C3(C)CC3)c2)n1CC1CCCCC1
Reply text: > 6.30

Could you now look at the following molecule, please?
Inquiry: # get_value(readout= pIC50, system= RORγ ligand binding domain (LBD) (Homo sapiens)) for Cc1c(S(N)(=O)=O)cc(-c2cc(C(C)(C)C)cc(C(C)(C)C)c2)n1CC1CCOCC1
Reply text: < 5.70

# credit: patent US8946446B2
